Data credit: ChEMBL document CHEMBL1201862

system: SR; test: NCI tumour cell line growth inhibition, 48 h
Calls of active or inactive are those of the source. No stated cut-off is given here; in the data, active = GI50 up to about 1.1 µM and inactive = higher.
# GI50 per record follows

# molecule, GI50
measured = [
    ("CC1=C2C(=O)C(C)(C)C=C2C(=O)[C@](C)(O)C12CC2 [DEHYDROILLUDIN M]", "0.61 µM (active)"),
]

Q: // returns reported GI50 for input COc1ccc2cc(/C=N\NC(=O)Nc3ccc([N+](=O)[O-])cc3)ccc2c1
Ans: > 10 µM (inactive)

Q: Entry COC(=O)C1=CO[C@@H](OC2CC(CO)C(O)C(O)C2O)[C@@H]2[C@@H](C)[C@@H](OC(=O)/C=C/c3ccccc3)[C@@H](O)[C@H]12.COC(=O)C1=CO[C@@H](OC2CC(CO)C(O)C(O)C2O)[C@@H]2[C@@H](C)[C@@H](OC(=O)c3ccccc3)[C@@H](O)[C@H]12 (stereo not given in full) please
Ans: 66.7 µM (inactive)

Q: Entry O=C1C(/N=N/c2ccc(-c3nc4ccccc4[nH]3)cc2)NC(=S)N1c1ccccc1 (stereo not given) please
Ans: 0.671 µM (active)

Q: Entry Nc1ccn([C@H]2CO[C@@H](CO)O2)c(=O)n1 please
Ans: 1.49 µM (inactive)

Q: Entry Cc1ccc2c(sc(-c3ccc4c(c3)sc(-c3ccc(N(C)C)cc3)[n+]4C)[n+]2C)c1S(=O)(=O)O.Cc1ccc2c(sc(-c3ccc4c(c3)sc(-c3ccc5c(c3)sc(-c3ccc(N(C)C)cc3)[n+]5C)[n+]4C)[n+]2C)c1S(=O)(=O)O please
Ans: 1 µM (active)
